Recorded aptazyme ON/OFF ratio, one value per entry.
B1: Pistol ribozyme (parent)
chain: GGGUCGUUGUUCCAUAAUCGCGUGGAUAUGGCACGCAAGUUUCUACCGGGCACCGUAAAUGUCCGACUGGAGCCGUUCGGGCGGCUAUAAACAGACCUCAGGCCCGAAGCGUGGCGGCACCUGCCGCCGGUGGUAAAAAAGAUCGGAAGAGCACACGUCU

- Variants of: B1
- Assay: aptazyme ON/OFF ratio, guanine; higher = stronger switching; co-transcriptional cleavage with and without guanine
Answer as a number with no unit attached.

Field: example entries. Status: answers known.
> print(dat)
                mutation.list      measured.property  result
1          U8C U11A C12G C13G  aptazyme ON/OFF ratio    1.16
2      U7A G9U U10C U11G C13A  aptazyme ON/OFF ratio    1.13
3          U7G U10C U11C C12A  aptazyme ON/OFF ratio     1.1
4  U7A U8C G9U U10C U11A C12U  aptazyme ON/OFF ratio    1.13

In: Using the record for U8A G9A U10A U11A C12G , report its aptazyme ON/OFF ratio.
Out: 1.24

In: Using the record for U7C G9C U10G U11G C12G C13A , report its aptazyme ON/OFF ratio.
Out: 1.08

In: Using the record for U7C U8C G9C U10C C12G C13U , report its aptazyme ON/OFF ratio.
Out: 1.04

In: Using the record for U7A G9C U10C U11C C12A C13A , report its aptazyme ON/OFF ratio.
Out: 1.02

In: Using the record for U7C U8C G9A U10A U11G C12A , report its aptazyme ON/OFF ratio.
Out: 1.08

In: Using the record for U8G U10A , report its aptazyme ON/OFF ratio.
Out: 1.15
